# Test system: ERBB2
# test settings: concentration: 1 μM, replicates: in singlicate; n = 1
Assignment: determine reported %Inh for the given compounds.

Sample records with %Inh:
>>> endpoint_result("CCc1ccc(-c2ccc3c(c2)-c2nn(C)cc2S(=O)(=O)N3C)cc1")
"2%"
>>> endpoint_result("COc1cc(Nc2nccc(N3CCC(NC(=O)C4COc5ccccc5O4)C3)n2)cc(OC)c1OC (centres unmarked)")
"50%"
>>> endpoint_result("CCC(=O)c1c(-c2ccccc2)c2cc(Cl)ccc2c(=O)n1Cc1cc(S(C)(=O)=O)n(CC(N)=O)n1")
"39%"

Hi team, please reply with %Inh for each item in this list.
1. COc1ccc(-c2cc3c(C)nc(N)nc3n([C@H]3CC[C@H](O)CC3)c2=O)cn1
2. O=C(NCc1cccs1)c1cc(C(=O)c2c(Cl)cccc2Cl)c[nH]1

1. 0%
2. 0%

----------
# Test system: MTOR;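 also: kd values determined as follow-up on hits from a single-replicate KINOMEscan panel screen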
readout kind: Kd (nM)
One number for each entry, in nM.

>>> endpoint_result("COc1ccc(-c2cc3c(C)nc(N)nc3n([C@H]3CC[C@H](OCCO)CC3)c2=O)cn1")
3.3

Now examine the next entry.
# Kd of COc1ccc(-c2cc3c(C)nc(N)nc3n([C@H]3CC[C@H](O)CC3)c2=O)cn1 = 4.8

----------
Assignment: determine reported %Inh for the given molecules.
# Tested on: CDK9
# test settings: concentration: 1 μM, replicates: in singlicate; n = 1
Numbers only, in %.

Hi team, please reply with %Inh for each item in this list.
1. Cc1ccc(-c2ccc3c(ccc4sc5c(c43)NC[C@@H](C)N=C5N(C)C)n2)cn1
2. CCn1c(-c2nonc2N)nc2ccccc21
3. COc1cc(Nc2nccc(N3CCC(NC(=O)C(C)c4ccc(Cl)cc4)C3)n2)cc(OC)c1OC (stereo not drawn)
4. COc1cc2nccc(Nc3ccc(OCc4ccc(NC(C)=O)cc4)cc3)c2cc1OC.Cl
5. O=C(Nc1n[nH]c2nc(-c3ccccc3)c(Br)cc12)C1CC1

0
0
0
0
0

----------
# Test system: WNK1
# test settings: concentration: 1 μM, replicates: in singlicate; n = 1
Assignment: determine reported %Inh for the given molecules.
Give bare numbers, in %.

Sample records with %Inh:
>>> endpoint_result("COc1ccc(-c2coc3ccc(-c4nnc(SCc5cccc(C#N)c5)o4)cc23)cc1")
0
>>> endpoint_result("COc1cc(Nc2nccc(N3CCC(NC(=O)C4COc5ccccc5O4)C3)n2)cc(OC)c1OC (stereo not drawn)")
1
>>> endpoint_result("CN1C(=O)C(Nc2cc(Cl)c(O)c(Cl)c2)=C(c2ccc(Cl)cc2)C1=O")
0
>>> endpoint_result("CCC(=O)c1c(-c2ccccc2)c2cc(Cl)ccc2c(=O)n1Cc1cc(S(C)(=O)=O)n(CCC(C)(C)O)n1")
0

Hi team, please reply with %Inh for each item in this list.
1. Cc1c(Cn2c(C)nn3c(=O)cc(N4CCO[C@H](C)C4)nc23)cccc1C(F)(F)F
2. O=C(Nc1ccc2c(c1)OCO2)NC1CCN(c2ccnc(NCc3ccc(F)cc3)n2)CC1
3. Cc1nnc(-c2ccc3ncn(-c4ccc(S(C)=O)cc4)c3c2)o1 (stereo not drawn)
4. Cc1nn2c(=O)cc(N3CCOCC3)nc2n1Cc1cccc(Cl)c1Cl
5. Nc1nc(N)c2nc(-c3ccccc3)[nH]c2n1

[11, 0, 0, 0, 9]

Hi team, please reply with %Inh for each item in this list.
1. Cl.c1ccc(Cn2cnc3cc(Nc4ncnc5ccccc45)ccc32)cc1
2. CCS(=O)(=O)c1ccc(OC)c(Nc2ncc(-c3ccc(F)cc3)o2)c1.Cl
3. COc1cccc(C2=C(Nc3cccc(C(=O)O)c3)C(=O)NC2=O)c1
4. CCC(=O)c1c(-c2ccccc2)c2cc(Cl)ccc2c(=O)n1Cc1cc(S(C)(=O)=O)n(CC(N)=O)n1
5. CCCC(=O)Nc1n[nH]c2ncc(-c3cccc4ccccc34)cc12
6. CCS(=O)c1ccc(-c2coc3ccc(-c4nnc(C)o4)cc23)cc1 (stereo not drawn)
7. COC(=O)c1c(-c2ccccc2)c2cc(C)ccc2c(=O)n1Cc1ccccc1

1: 2; 2: 2; 3: 3; 4: 0; 5: 12; 6: 0; 7: 0

Hi team, please reply with %Inh for each item in this list.
1. FC(F)(F)c1ccc(-c2ncn(CCCN3CCOCC3)c2-c2ccncc2)cc1
2. Cc1ccc(-c2ccc3c(ccc4sc5c(c43)NC[C@@H](C)N=C5N(C)C)n2)cn1

1. 20
2. 0

----------
Assignment: determine reported %Inh for the given compounds.
# System: JAK1(JH1domain-catalytic)
# test settings: concentration: 1 μM, replicates: in singlicate; n = 1
Write the numeric value and follow it with the unit.

Hi team, please reply with %Inh for each item in this list.
1. CN1C(=O)C(Nc2ccccc2)=C(c2ccccc2)C1=O [SB-300079]
2. COc1cc(Nc2ccnc3ccc(C(F)(F)F)cc23)cc(OC)c1OC [GW577382]
3. Nc1ncnc2c1ncn2-c1cccc2ccccc12 [SKF-97184]
4. COc1cccc(-n2cnc3c(N)ncnc32)c1 [SKF-97416]

0%
8%
1%
0%

# %Inh of CCC(=O)c1c(-c2ccccc2)c2cc(Cl)ccc2c(=O)n1Cc1cc(S(C)(=O)=O)n(CC(N)=O)n1 = 0%

----------
# Test system: CAMK2G
# test settings: concentration: 1 μM, replicates: in singlicate; n = 1
readout kind: %Inh (%)
One number for each entry, in %.

Sample records with %Inh:
>>> endpoint_result("Cc1nnc(-c2ccc(C)c(-c3ccc(C(=O)O)cc3)c2)o1")
3
>>> endpoint_result("CCC(=O)c1c(-c2ccccc2)c2cc(Cl)ccc2c(=O)n1Cc1cc(C(=O)NC2CC2)n(C)n1")
6
>>> endpoint_result("Cl.c1ccc(Cn2cnc3cc(Nc4ncnc5ccccc45)ccc32)cc1")
32

Hi team, please reply with %Inh for each item in this list.
1. Cc1ccc(-c2ccc3c(ccc4sc5c(c43)NC[C@@H](C)N=C5N(C)C)n2)cn1
2. Nc1nccc2scc(-c3ccc4c(c3)CCN4C(=O)Cc3ccccc3)c12
3. COc1ccc(Nc2nccc(N3CCC(NS(=O)(=O)c4ccc(NC(C)=O)cc4)C3)n2)cc1 (stereo not drawn)

1. 0
2. 0
3. 9

----------
# Tested on: NEK9
# test settings: concentration: 1 μM, replicates: in singlicate; n = 1
readout kind: %Inh (%)
Numbers only, in %.

Hi team, please reply with %Inh for each item in this list.
1. COc1cc(Nc2nccc(N3CCC(NC(=O)C4COc5ccccc5O4)C3)n2)cc(OC)c1OC (stereo not shown)
2. CC(C)(C)c1ccc(C(=O)Nc2cn3cc(-c4ccccc4)ccc3n2)cc1
3. OCCCNc1nccc(-c2c(-c3cccc(C(F)(F)F)c3)nn3cc(C(F)(F)F)ccc23)n1
4. O=C(Nc1n[nH]c2nc(-c3ccccc3)c(Br)cc12)C1CC1

1: 37; 2: 0; 3: 1; 4: 3

----------
# Test system: MAP4K4
# test settings: concentration: 1 μM, replicates: in singlicate; n = 1
Assignment: determine reported %Inh for the given molecules.
Give bare numbers, in %.

>>> endpoint_result("CCc1nc(-c2cccc(C)c2)c(-c2ccncc2)s1")
17
>>> endpoint_result("Cc1cccc(-c2cc(-c3c[nH]nc3-c3ccccn3)ccn2)c1 [GW679395]")
0
>>> endpoint_result("COc1cccc(C2=C(Nc3cccc(C(=O)O)c3)C(=O)NC2=O)c1 [SB-390770]")
12

Hi team, please reply with %Inh for each item in this list.
1. CCC(=O)c1c(-c2ccccc2)c2cc(Cl)ccc2c(=O)n1Cc1ccc(C(=O)O)cc1
2. Cc1nn2c(=O)cc(N3CCOCC3)nc2n1Cc1cccc(Cl)c1Cl [GSK2342769]
3. O=C(Nc1ccc2c(c1)OCO2)NC1CCN(c2ccnc(NCc3ccc(F)cc3)n2)CC1 [GSK1379859]
4. COc1cc2ncn(-c3cc(OCc4ccncc4)c(C(N)=O)s3)c2cc1OC [GSK336313]

0
0
3
0

# %Inh of O=c1cc(N2CCOCC2)nc2n(Cc3ccc(F)c(Cl)c3)ccn12 [GSK2297099] = 0

----------
# Tested on: PKN1
# test settings: concentration: 1 μM, replicates: in singlicate; n = 1
API: label(entry) gives Criterion met if the entry's %Inh is strictly smaller than 20%; on equality or larger values it gives Criterion not met.

>>> cat("COc1ccc(-c2coc3ccc(-c4nnc(SCc5cccc(C#N)c5)o4)cc23)cc1")
"Criterion not met"
>>> cat("COc1cccc(C2=C(Nc3cccc(C(=O)O)c3)C(=O)NC2=O)c1 [SB-390770]")
"Criterion not met"
>>> cat("CCS(=O)(=O)c1ccc(OC)c(Nc2ncc(-c3ccc(F)cc3)o2)c1.Cl [GW591947]")
"Criterion met"
>>> cat("CCCC(=O)Nc1n[nH]c2ncc(-c3cccc4ccccc34)cc12 [SB-642057]")
"Criterion met"
>>> cat("COc1cc2ncn(-c3cc(OCc4ccncc4)c(C(N)=O)s3)c2cc1OC [GSK336313]")
"Criterion not met"

Say whether its %Inh is strictly beneath 20%. Entry: Cl.NS(=O)(=O)c1cccc(Nc2cc(-c3ccc(F)cc3)n[nH]2)c1 [GW824645]
Criterion met
